// data source = the supplement of paper PMC4862054

- Test system: MDA-MB-436
- TEST_DESCRIPTION: drug sensitivity score (DSS), CellTox Green (DSS (AUC-based score)); higher = stronger drug effect (viability inhibition or cytotoxicity); extreme values may be limits of the assay
- CONDITIONS_USED: incubation time: 72 h
Listed molecules paired with reported drug sensitivity score
Kindly provide the number alone.

1) COc1cc([C@@H]2c3cc4c(cc3[C@@H](O[C@@H]3O[C@@H]5CO[C@@H](C)O[C@H]5[C@H](O)[C@H]3O)[C@H]3COC(=O)[C@H]23)OCO4)cc(OC)c1O [Etoposide]    0
2) COc1cc2nccc(Oc3ccc(NC(=O)C4(C(=O)Nc5ccc(F)cc5)CC4)cc3)c2cc1OC [Cabozantinib]    0

Can you share its drug sensitivity score? I mean this molecule: O=C(CCCCCCC(=O)Nc1ccc([C@H]2O[C@@H](CSc3nc(-c4ccccc4)c(-c4ccccc4)o3)C[C@@H](c3ccc(CO)cc3)O2)cc1)NO [Tubacin] 0
